systemTested: BRD9 (Homo sapiens, UniProt Q9H8M2)
Sequence (Q9H8M2 1-597): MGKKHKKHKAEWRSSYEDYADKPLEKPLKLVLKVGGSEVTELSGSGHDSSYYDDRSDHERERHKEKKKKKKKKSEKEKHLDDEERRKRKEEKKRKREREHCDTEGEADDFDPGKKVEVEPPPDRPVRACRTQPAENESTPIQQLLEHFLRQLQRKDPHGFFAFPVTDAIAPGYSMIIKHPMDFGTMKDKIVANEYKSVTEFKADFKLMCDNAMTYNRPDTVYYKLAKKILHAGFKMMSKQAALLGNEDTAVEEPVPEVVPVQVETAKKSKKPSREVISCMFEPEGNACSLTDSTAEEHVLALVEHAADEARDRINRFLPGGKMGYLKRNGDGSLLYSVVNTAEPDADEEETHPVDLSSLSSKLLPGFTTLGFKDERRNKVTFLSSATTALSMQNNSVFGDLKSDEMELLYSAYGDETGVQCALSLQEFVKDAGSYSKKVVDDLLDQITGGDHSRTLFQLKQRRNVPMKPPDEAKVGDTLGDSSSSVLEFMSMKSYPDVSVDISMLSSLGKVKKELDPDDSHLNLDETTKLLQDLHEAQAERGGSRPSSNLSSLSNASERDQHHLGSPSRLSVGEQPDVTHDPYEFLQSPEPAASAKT
protocolNotes: BRD9 degradation, HiBiT-BRD9 KI HEK293 (LgBiT) cells, NanoGlo Lytic Endpoint assay (Assay Protocol 1)
Assay type: cell-based
conditionSet: Assay protocol 1; BRD9 degradation; read-out: DC50
metricName: DC50

Worked examples follow.
COc1cc(-c2cn(C)c(=O)c(C)c2C)cc(OC)c1CN1CCN(Cc2cccc3c2CCN(C(=O)/C(C#N)=C/c2ncccc2C(F)(F)F)C3C)CC1 (mixture of isomers) : < 1.25 nM
COc1cc(-c2cn(C)c(=O)c(C)c2C)cc(OC)c1CN(C)Cc1ccc(C2CCCN2C(=O)/C(C#N)=C/C(C)(C)C)cc1 (mixture of isomers) : 10 to 25 nM

In the following, a different compound is considered.
Task item: Request body: readout DC50, system BRD9 (Homo sapiens, UniProt Q9H8M2), query COc1cc(-c2cn(C)c(=O)c(C)c2C)cc(OC)c1CN1CC2CCC(C1)N2Cc1cccc2c1CCN(C(=O)/C(C#N)=C/c1cccc(Br)n1)C2C (mixture of isomers) . Return the value.
Reply: 1.25 to 10 nM

Source: patent US20260092061A1
